Assay: PK of compound of Formula (Ia) after single subcutaneous dose of solution formulations in Wistar Han rats
Type: in vivo
Settings: male, Wistar Han, rat, plasma, sc, 50 mg/kg, mean ± SD, n = 5 rats; SC 50 mg/kg; solution T, 400 mg/mL; read-out: AUC0-1008 h

| SMILES ENTRY | AUC(0-t) [µM·h] |
| --- | --- |
| CC(C)(C#Cc1ccc(-c2ccc(Cl)c3c(NS(C)(=O)=O)nn(CC(F)(F)F)c23)c([C@H](Cc2cc(F)cc(F)c2)NC(=O)Cn2nc(C(F)(F)F)c3c2C(F)(F)[C@@H]2C[C@H]32)n1)S(C)(=O)=O | 313 |

Hey, just so you know, these numbers are from patent US11807625B2.
